- TARGET ENTITY: F508delCFTR (Homo sapiens, UniProt P13569, DEL508-508)
- Construct: expressed in transfected cells; host or cells: CFBE41o- human lung derived epithelial cells (CFBE41o-F508delCFTR-HRP), doxycycline-inducible
- Sequence (P13569 with tags, fused parts or gaps DEL508-508): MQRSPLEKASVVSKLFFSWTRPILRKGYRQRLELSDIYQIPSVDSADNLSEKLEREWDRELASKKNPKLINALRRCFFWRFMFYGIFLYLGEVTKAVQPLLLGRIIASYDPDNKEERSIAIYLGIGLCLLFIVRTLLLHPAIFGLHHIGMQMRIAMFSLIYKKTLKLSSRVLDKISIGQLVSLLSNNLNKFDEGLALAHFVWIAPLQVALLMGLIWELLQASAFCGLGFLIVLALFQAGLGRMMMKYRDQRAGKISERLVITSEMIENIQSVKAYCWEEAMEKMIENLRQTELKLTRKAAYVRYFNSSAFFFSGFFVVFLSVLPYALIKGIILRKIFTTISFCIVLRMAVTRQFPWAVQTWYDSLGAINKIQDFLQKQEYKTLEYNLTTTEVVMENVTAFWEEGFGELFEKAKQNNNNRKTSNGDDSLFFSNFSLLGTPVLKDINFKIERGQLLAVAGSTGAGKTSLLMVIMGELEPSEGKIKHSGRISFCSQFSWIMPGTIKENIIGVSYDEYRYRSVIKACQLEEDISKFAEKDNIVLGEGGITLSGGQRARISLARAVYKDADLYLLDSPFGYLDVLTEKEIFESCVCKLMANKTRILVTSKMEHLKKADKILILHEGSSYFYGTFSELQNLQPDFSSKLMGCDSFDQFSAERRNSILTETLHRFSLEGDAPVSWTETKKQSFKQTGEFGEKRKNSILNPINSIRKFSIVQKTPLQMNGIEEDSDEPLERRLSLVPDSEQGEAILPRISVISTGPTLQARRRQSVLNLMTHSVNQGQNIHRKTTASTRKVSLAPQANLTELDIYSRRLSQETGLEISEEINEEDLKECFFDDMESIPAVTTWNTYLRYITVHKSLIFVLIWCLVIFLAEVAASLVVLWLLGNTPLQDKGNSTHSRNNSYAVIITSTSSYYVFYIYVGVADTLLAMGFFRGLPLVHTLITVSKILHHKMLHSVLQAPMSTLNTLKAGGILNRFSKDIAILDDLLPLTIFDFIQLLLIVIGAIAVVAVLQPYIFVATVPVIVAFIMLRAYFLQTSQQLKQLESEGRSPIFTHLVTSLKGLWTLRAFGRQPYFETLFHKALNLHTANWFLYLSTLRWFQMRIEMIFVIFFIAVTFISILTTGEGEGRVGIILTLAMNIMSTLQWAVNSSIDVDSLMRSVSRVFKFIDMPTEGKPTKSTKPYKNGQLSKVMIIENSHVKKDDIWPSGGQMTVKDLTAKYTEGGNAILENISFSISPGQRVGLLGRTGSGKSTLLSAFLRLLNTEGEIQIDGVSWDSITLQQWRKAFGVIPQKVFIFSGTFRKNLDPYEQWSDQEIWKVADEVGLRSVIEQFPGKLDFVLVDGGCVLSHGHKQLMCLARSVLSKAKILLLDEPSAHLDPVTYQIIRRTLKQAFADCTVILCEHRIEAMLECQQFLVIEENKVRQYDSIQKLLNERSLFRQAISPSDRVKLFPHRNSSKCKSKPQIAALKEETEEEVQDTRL
- PROCEDURE DETAILS: Cell Surface Expression-Horse Radish Peroxidase (CSE-HRP) Assay;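 also: co-corrector chromenyl benzoic acid corrector at 2 or 3 µM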
- Assay type: cell-based
- TEST PARAMETERS: with co-corrector; read-out: EC50 (with co-corrector)
pEC50: −log10 of the molar value.
METRIC NAME: pEC50

COc1ccc(S(=O)(=O)NC(=O)C2(c3ccc(Cl)cc3Cl)CC2)cc1
< 5.00
COc1cccc(C)c1C1(C(=O)NS(=O)(=O)c2cccc3ncccc23)CC1
> 5.52
COC(=O)c1ccc(OC)c(C2(C(=O)NS(=O)(=O)c3cccc4ncccc34)CC2)c1
> 5.52

Test system F508delCFTR (Homo sapiens, UniProt P13569, DEL508-508); read-out pEC50; what value for "CO[C@@H](C)COc1ccc(C)cc1C1(C(=O)NS(=O)(=O)c2cccc3ncccc23)CC1" ?
> 5.52

Test system F508delCFTR (Homo sapiens, UniProt P13569, DEL508-508); read-out pEC50; what value for "O=C(NS(=O)(=O)c1cccc2c1CCCN2)C1(c2cc(OC(F)(F)F)ccc2Cl)CC1" ?
> 5.52

Test system F508delCFTR (Homo sapiens, UniProt P13569, DEL508-508); read-out pEC50; what value for "COc1cc(C2(C(=O)NS(=O)(=O)c3cccc4ncccc34)CC2)c(OCC(C)C)cn1" ?
> 5.52

Test system F508delCFTR (Homo sapiens, UniProt P13569, DEL508-508); read-out pEC50; what value for "COc1ncc(C2CCC2)cc1C1(C(=O)NS(=O)(=O)c2cccc3c2ccn3C)CC1" ?
> 5.52

Test system F508delCFTR (Homo sapiens, UniProt P13569, DEL508-508); read-out pEC50; what value for "COc1cc(F)c(C(C)C)cc1C1(C(=O)NS(=O)(=O)c2cccc3c2CCCN3)CC1" ?
> 5.52

Test system F508delCFTR (Homo sapiens, UniProt P13569, DEL508-508); read-out pEC50; what value for "CC(C)(C)OC(=O)N1CCC(C(=O)NS(=O)(=O)c2cccc3ccccc23)(c2ccc(F)cc2)CC1" ?
> 5.52

Test system F508delCFTR (Homo sapiens, UniProt P13569, DEL508-508); read-out pEC50; what value for "COc1ccc(C2CCC2)cc1C1(C(=O)NS(=O)(=O)c2cccc3ccccc23)CC1" ?
> 5.52

Test system F508delCFTR (Homo sapiens, UniProt P13569, DEL508-508); read-out pEC50; what value for "O=C(NS(=O)(=O)C1CCNCC1)C1(c2ccc(Cl)cc2Cl)CC1" ?
< 5.00

Test system F508delCFTR (Homo sapiens, UniProt P13569, DEL508-508); read-out pEC50; what value for "COc1cc(F)c(C(C)C)cc1C1(C(=O)NS(=O)(=O)c2cccc3ncccc23)CC1" ?
> 5.52

Test system F508delCFTR (Homo sapiens, UniProt P13569, DEL508-508); read-out pEC50; what value for "COc1ccc(C2CCC2)cc1C1(C(=O)NS(=O)(=O)c2cccc3c2CCCN3)CC1" ?
> 5.52
